Listed compounds paired with reported viscosity
condition.label: 303.15 K; 100 kPa
observable: viscosity (mPa·s)

[[record]]
test_smiles = "COC(C)(C)C"
unit_label = "mPa·s"
meas_value = 0.297

[[record]]
test_smiles = "CCO"
unit_label = "mPa·s"
meas_value = 0.989

[[record]]
test_smiles = "CCCCn1cc[n+](C)c1.F[P-](F)(F)(F)(F)F"
unit_label = "mPa·s"
meas_value = 197.6

[[record]]
test_smiles = "C=CC(=O)OCC"
unit_label = "mPa·s"
meas_value = 0.5

[[record]]
test_smiles = "CCc1ccccc1"
unit_label = "mPa·s"
meas_value = 0.592


From: the CheMixHub viscosity set
